measuredOn: UniProtKB A0A024AXB9
Sequence (A0A024AXB9 whole entry): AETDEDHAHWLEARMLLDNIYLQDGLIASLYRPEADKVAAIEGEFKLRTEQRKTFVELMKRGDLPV
assayText: Functional biochemical assay to identify treatments for viral infectious disease that targets Zika NS2B-NS3 protease. Utilizing a direct enzyme activity measurement method, reading the fluorescence intensity is used to characterize the relative potency of inhibitors as IC50.
Design: species or system PRVABC59
quantityKind: IC50

compoundString | measuredOn | testResult
c1ccc2c([C@H]3CCN(CCC4CCOCC4)C3)c[nH]c2c1 | UniProtKB A0A024AXB9 | > 99.5 µM
CCn1ccnc(N2C[C@H](c3c[nH]c4ccccc34)[C@H](N3C(=O)c4ccccc4C3=O)C2)c1=O | UniProtKB A0A024AXB9 | > 99.5 µM
CC(C)[C@@H]1CC[C@@H](C)C[C@H]1C(=O)Nc1cccc(CN)c1 | UniProtKB A0A024AXB9 | > 99.5 µM
NC[C@@H]1CN(c2cc(-c3ccc(N)nc3)cc3c2COB3O)C(=O)O1 | UniProtKB A0A024AXB9 | > 99.5 µM
N#Cc1cccc(-c2nc3c(C(=O)Nc4ccccn4)cc(Cl)cc3[nH]2)c1 | UniProtKB A0A024AXB9 | > 25 µM
Cc1c(C(=O)Nc2cc(C(=O)N3CCn4nccc43)ccn2)cc(C2CC2)n1C | UniProtKB A0A024AXB9 | > 25 µM
